# System: MCF7
# PROTOCOL_DESCRIPTION: Cytotoxicity against human MCF7 cells at 2 to 4 uM after 24 hrs by MTT assay
# Format: functional, cell-based
Active and inactive are the calls of the source. The rule behind the calls is not given here.
Write down the outcome that applies. Available outcomes: true (1) for active, false (0) for inactive

# CPD_SMILES, GROUP_LABEL
measured = [
    ("COc1ccccc1/C=C(/C(=O)N[C@@H]1c2cc3c(cc2[C@@H](c2cc(OC)c(OC)c(OC)c2)[C@H]2C(=O)OC[C@@H]21)OCO3)c1ccc([N+](=O)[O-])cc1", "true (1)"),
]

# input Lab log entry: COc1ccccc1/C=C(/C(=O)N[C@@H]1c2cc3c(cc2[C@@H](c2cc(OC)c(OC)c(OC)c2)[C@H]2C(=O)OC[C@@H]21)OCO3)c1ccccc1[N+](=O)[O-] — outcome as called in the assay?
# output true (1)

# input Could you kindly confirm the outcome this assay logged for COc1ccccc1/C(=C\c1ccc([N+](=O)[O-])cc1)C(=O)O ?
# output false (0)

====

# System: MCF7
# PROTOCOL_DESCRIPTION: Induction of apoptosis in human MCF7 cells assessed as double-strand DNA breaks at 2 uM after 24 hrs measured as phosphorylation at ser-139 on H2AX protein by immunostaining relative to control
# Type: functional
MEASURED_PARAMETER: Activity

# COMPOUND, Activity
records = [
    ("COc1ccccc1/C(=C\\c1ccc([N+](=O)[O-])cc1)C(=O)O", "30%"),
    ("COc1ccc(/C=C\\c2cc(OC)c(OC)c(OC)c2)cc1O", "50%"),
]

# input Reported Activity for COc1cc([C@@H]2c3cc4c(cc3[C@@H](O[C@@H]3O[C@@H]5CO[C@@H](C)O[C@H]5[C@H](O)[C@H]3O)[C@H]3COC(=O)[C@H]23)OCO4)cc(OC)c1O [ETOPOSIDE] : what is it?
# output 70%

====

# Tested on: MCF7
# PROTOCOL_DESCRIPTION: Cytotoxicity against human MCF7 cells at 2 to 4 uM after 24 hrs by MTT assay
# Format: functional, cell-based
Activity calls are given as the source filed them. The rule behind the calls is not given here.
Lab note: assign the record to one of active, inactive

Some solved entries appear below for comparison.
# COMPOUND, MEASUREMENT_TARGET, GROUP_LABEL
rows = [
    ("COc1cc([C@@H]2c3cc4c(cc3[C@@H](O[C@@H]3O[C@@H]5CO[C@@H](C)O[C@H]5[C@H](O)[C@H]3O)[C@H]3COC(=O)[C@H]23)OCO4)cc(OC)c1O [ETOPOSIDE]", "MCF7", "active"),
    ("COc1cc([C@@H]2c3cc4c(cc3[C@H](O)[C@H]3COC(=O)[C@H]23)OCO4)cc(OC)c1OC", "MCF7", "inactive"),
]

Continue with the compound presented below.
# input Check the results log: what was the call for COc1cccc(/C=C(/C(=O)N[C@@H]2c3cc4c(cc3[C@@H](c3cc(OC)c(OC)c(OC)c3)[C@H]3C(=O)OC[C@@H]32)OCO4)c2cc(OC)c(OC)c(OC)c2)c1 ?
# output active

====

# Tested on: MCF7
# PROTOCOL_DESCRIPTION: Cell cycle arrest in human MCF7 cells assessed as accumulation at G1 phase at 2 uM after 24 hrs by propidium iodide staining based flow cytometry (reference value: 60.5%)
# Assay type: functional
MEASURED_PARAMETER: Activity (%)
Respond numerically; units are % and should not be typed.

// below: answered compounds
# COMPOUND, Activity (%)
measured = [
    ("COc1ccc(/C=C\\c2cc(OC)c(OC)c(OC)c2)cc1O [COMBRETASTATIN A4]", 2.49),
    ("COc1cccc(/C=C(/C(=O)N[C@@H]2c3cc4c(cc3[C@@H](c3cc(OC)c(OC)c(OC)c3)[C@H]3C(=O)OC[C@@H]32)OCO4)c2cc(OC)c(OC)c(OC)c2)c1", 52.49),
    ("COc1ccccc1/C(=C\\c1ccc([N+](=O)[O-])cc1)C(=O)O", 66.28),
    ("COc1cc([C@@H]2c3cc4c(cc3[C@H](O)[C@H]3COC(=O)[C@H]23)OCO4)cc(OC)c1OC [PODOFILOX]", 2.38),
]

Let us examine a further case.
# input Entry COc1cc([C@@H]2c3cc4c(cc3[C@@H](O[C@@H]3O[C@@H]5CO[C@@H](C)O[C@H]5[C@H](O)[C@H]3O)[C@H]3COC(=O)[C@H]23)OCO4)cc(OC)c1O [ETOPOSIDE] has what Activity?
# output 17.29
